Hello, the source for this data is PubChem BioAssay (NCI), in case you need it.

Tested on: IGROV1 ovarian
test: NCI tumour cell line growth inhibition, 48 h
readout-type: TGI (µM)

compound="Cc1ccc(S(=O)(=O)N2CCCCC2CCO)cc1 (stereo not given)" assayed_system="IGROV1 ovarian" modifier_sign=> numeric_readout=100
compound=CN(C)CCn1cc(-c2ccc3c(Nc4ccc(CC(=O)Nc5cccc(F)c5)cc4)ncnc3c2)cn1 assayed_system="IGROV1 ovarian" modifier_sign== numeric_readout=6.41
compound="CC(C)(C)c1cc(C(O)(C(F)(F)F)C(F)(F)F)c2c(c1)C(C(F)(F)F)(C(F)(F)F)OC(c1ccccc1)(C(C)(C)C)N2 (stereo not given)" assayed_system="IGROV1 ovarian" modifier_sign== numeric_readout=16.7
compound=c1ccc(/C(=N/Nc2cnccn2)c2ncccn2)cc1 assayed_system="IGROV1 ovarian" modifier_sign=> numeric_readout=100
compound="CC1SC(c2cccs2)N(NC(=O)C(O)c2ccccc2)C1=O (stereo not given)" assayed_system="IGROV1 ovarian" modifier_sign=> numeric_readout=100
